Experiment: Activation of NF-kappaB (unknown origin)
Parameters: species or system Homo sapiens
Conditions: read-out: EC50
Cut-off 3 µM on EC50: below means met, at or above means not met.

For orientation, consider the following solved cases.
O=C(/C=C\Nc1ccccc1)c1ccc2c(c1)OCO2 ... met
O=C(c1ccc(Cl)c(Cl)c1)c1ccn(-c2ccccc2F)c1 ... not met
O=C(/C=C\Nc1ccccc1Cl)c1ccc2c(c1)OCO2 ... met
O=C(/C=C\Nc1ccccc1C(F)(F)F)c1ccc2c(c1)OCO2 ... not met
COc1ccccc1N/C=C\C(=O)c1ccccn1 ... met

Data request: hey, is EC50 for Cc1cccnc1N/C=C\C(=O)c1ccc2c(c1)OCO2 lower than 3 µM or not?
Data returned: met

Data request: hey, is EC50 for O=C(/C=C\Nc1ccccc1C(F)(F)F)c1ccccn1 lower than 3 µM or not?
Data returned: met

Data request: hey, is EC50 for COc1cccnc1N/C=C\C(=O)c1ccc2c(c1)OCO2 lower than 3 µM or not?
Data returned: not met

Data request: hey, is EC50 for O=C(c1ccc2c(c1)OCO2)c1c[nH]c2cc(F)ccc12 lower than 3 µM or not?
Data returned: not met

Data request: hey, is EC50 for Cc1cccc2c(C(=O)c3ccc4c(c3)OCO4)c[nH]c12 lower than 3 µM or not?
Data returned: not met

Data request: hey, is EC50 for COc1ccccc1N/C=C\C(=O)c1ccc2c(c1)OCO2 lower than 3 µM or not?
Data returned: not met

Data request: hey, is EC50 for Cc1ccc(C(=O)c2ccn(-c3ccccc3F)c2)cc1C lower than 3 µM or not?
Data returned: not met

---

Test: Activation of NF-kappaB (unknown origin) relative to control
Details: Homo sapiens
Binning rule for recorded Emax: low bin = under 10%, mid bin = from 10% up to 20%, high bin = 20% and over

For orientation, consider the following solved cases.
O=C(c1ccc2c(c1)OCO2)c1c[nH]c2cc(F)ccc12 ... low bin
Cc1cccnc1N/C=C\C(=O)c1ccccn1 ... high bin

Data request: Bin this entry: O=C(/C=C\Nc1ncccc1C(F)(F)F)c1ccccn1
Data returned: mid bin

Data request: Bin this entry: O=C(c1ccc2c(c1)OCO2)c1ccn(-c2cccc(F)c2)c1
Data returned: mid bin

Data request: Bin this entry: Fc1ccccc1-n1ccc(CNc2ccc3c(c2)OCO3)c1
Data returned: mid bin

Data request: Bin this entry: O=C(c1ccc2c(c1)OCO2)c1c[nH]c2ccc(Br)cc12
Data returned: low bin

Data request: Bin this entry: O=C(c1ccc(Cl)c(Cl)c1)c1ccn(-c2ccccc2F)c1
Data returned: low bin

Data request: Bin this entry: COc1ccccc1N/C=C\C(=O)c1ccccn1
Data returned: low bin

Data request: Bin this entry: O=C(/C=C\Nc1ccccc1C(F)(F)F)c1ccccn1
Data returned: mid bin

Data request: Bin this entry: O=C(/C=C\Nc1ncccc1F)c1ccc2c(c1)OCO2
Data returned: mid bin

Data request: Bin this entry: O=C(Nc1ccc2c(c1)OCO2)c1ccn(-c2ccccc2F)c1
Data returned: high bin

Data request: Bin this entry: O=C(c1ccc2c(c1)OCO2)c1ccn(-c2ccccc2Cl)c1
Data returned: mid bin

---

Assay: Activation of NF-kappaB (unknown origin)
Set-up: species or system Homo sapiens
Settings: read-out: EC50
List of EC50 values.
// units = µM; emit number, no label

Cc1cccnc1N/C=C\C(=O)c1ccccn1 ... 0.9
Cc1ccccc1N/C=C\C(=O)c1ccccn1 ... 0.3
O=C(c1ccc2c(c1)OCO2)c1c[nH]c2cc(Cl)ccc12 ... 1.2
O=C(c1ccc2c(c1)OCO2)c1ccn(-c2cccc(F)c2)c1 ... 17.7
O=C(c1ccc2c(c1)OCO2)c1c[nH]c2c(F)cccc12 ... 13.4

Data request: Give the value of EC50 reported for the following: O=C(/C=C\Nc1ncccc1C(F)(F)F)c1ccccn1
Data returned: 0.7

Data request: Give the value of EC50 reported for the following: O=C(/C=C\Nc1ncccc1C(F)(F)F)c1ccc2c(c1)OCO2
Data returned: 0.8

Data request: Give the value of EC50 reported for the following: O=C(c1ccc2c(c1)OCO2)c1c[nH]c2c(Br)cccc12
Data returned: 21.4

Data request: Give the value of EC50 reported for the following: O=C(c1ccc2c(c1)OCO2)c1ccn(-c2ccccc2Cl)c1
Data returned: 7.8

Data request: Give the value of EC50 reported for the following: Cc1ccccc1-n1ccc(C(=O)c2ccc3c(c2)OCO3)c1
Data returned: 22.4

Data request: Give the value of EC50 reported for the following: O=C(c1ccc2c(c1)OCO2)c1c[nH]c2cc(Br)ccc12
Data returned: 1
